Origin of measurements: patent US20240376052A1

experiment: Liver microsomes stability, dog; settings: Dog, With NADPH, 30 min
Parameter: Remaining Percentage (%)

[[record]]
structure_as_smiles = "CCCCC/C=C\\C/C=C\\CCCCCCCC(=O)n1cc(C[C@H]2CCCN2C)c2cc(OC)ccc21"
numeric_value = 49.51

[[record]]
structure_as_smiles = "CCCCC/C=C\\C/C=C\\CCCCCCCC(=O)n1cc(C[C@H]2CCCN2C)c2ccccc21"
numeric_value = 65.44

[[record]]
structure_as_smiles = "CCCCC/C=C\\C/C=C\\CCCCCCCC(=O)n1cc(CCN(C)C)c2ccccc21"
numeric_value = 66.41

[[record]]
structure_as_smiles = "[2H]C([2H])(c1cn(C(=O)CCCCCCC/C=C\\C/C=C\\CCCCC)c2ccccc12)[C@H]1CCCN1C([2H])([2H])[2H]"
numeric_value = 66.91


###

assay: Liver microsomes stability, rat; conditions: Rat, With NADPH, 30 min
Parameter: Remaining Percentage (%)

[[record]]
structure_as_smiles = "CCCCC/C=C\\C/C=C\\CCCCCCCC(=O)n1cc(C[C@H]2CCCN2C)c2ccccc21"
parameter = "Remaining Percentage (%)"
numeric_value = 69.74

[[record]]
structure_as_smiles = "CCCCC/C=C\\C/C=C\\CCCCCCCC(=O)n1cc(CCN(C)C)c2ccccc21"
parameter = "Remaining Percentage (%)"
numeric_value = 91.29

[[record]]
structure_as_smiles = "CCCCC/C=C\\C/C=C\\CCCCCCCC(=O)n1cc(C[C@H]2CCCN2C)c2cc(OC)ccc21"
parameter = "Remaining Percentage (%)"
numeric_value = 83.04

[[record]]
structure_as_smiles = "[2H]C([2H])(c1cn(C(=O)CCCCCCC/C=C\\C/C=C\\CCCCC)c2ccccc12)[C@H]1CCCN1C([2H])([2H])[2H]"
parameter = "Remaining Percentage (%)"
numeric_value = 56.08


###

compounds and their reported Remaining Percentage (%)
Assay: Liver microsomes stability, mouse
Details: Mouse, With NADPH, 0 min
Protocol: The objective of this study was to estimate in vitro metabolic stability of representative compounds of the application in pooled human and male mouse liver microsomes. The concentrations of parent compounds in reaction systems were evaluated by LC-MS/MS for estimating the stability in pooled human and male mouse liver microsomes. The in vitro intrinsic clearances of test compounds were determined as well. […] The in vitro half-life (in vitro t1/2) was determined from the slope value: […]
Parameter: Remaining Percentage (%)

[[record]]
compound = "CCCCC/C=C\\C/C=C\\CCCCCCCC(=O)n1cc(C[C@H]2CCCN2C)c2cc(OC)ccc21 [Compound I-6]"
numeric_value = 100.00

[[record]]
compound = "CCCCC/C=C\\C/C=C\\CCCCCCCC(=O)n1cc(CCN(C)C)c2ccccc21 [Compound I-8]"
numeric_value = 100.00

[[record]]
compound = "CCCCC/C=C\\C/C=C\\CCCCCCCC(=O)n1cc(C[C@H]2CCCN2C)c2ccccc21 [Compound I-5]"
numeric_value = 100.00

[[record]]
compound = "[2H]C([2H])(c1cn(C(=O)CCCCCCC/C=C\\C/C=C\\CCCCC)c2ccccc12)[C@H]1CCCN1C([2H])([2H])[2H] [Compound I-2]"
numeric_value = 100.00


###

target: human 5-HT2A receptor (Homo sapiens (Human), UniProt P28223); assay: Human 5-HT2A radioligand binding assay ([3H]-ketanserin); conditions: [3H]-ketanserin competition; read-out: h5-HT2A IC50
pIC50: −log10 of the molar value.
molecules and their reported pIC50
Parameter: pIC50

[[record]]
molecule = "CCCCC/C=C\\C/C=C\\CCCCCCCC(=O)n1cc(CCN(C)C)c2ccccc21"
system_tested = "human 5-HT2A receptor (Homo sapiens (Human), UniProt P28223)"
parameter = "pIC50"
result = "> 5.70"

[[record]]
molecule = "CCCCC/C=C\\C/C=C\\CCCCCCCC(=O)n1cc(C2CCN(C)C2)c2cc(OC)ccc21 (racemic)"
system_tested = "human 5-HT2A receptor (Homo sapiens (Human), UniProt P28223)"
parameter = "pIC50"
result = "5.30 to 5.70"

[[record]]
molecule = "CCCCC/C=C\\C/C=C\\CCCCCCCC(=O)n1cc(C2CCN(C)C2)c2ccccc21 (racemic)"
system_tested = "human 5-HT2A receptor (Homo sapiens (Human), UniProt P28223)"
parameter = "pIC50"
result = "5.30 to 5.70"


###

assay: Liver microsomes stability, rat; settings: Rat, Without NADPH, 30 min
Parameter: Remaining Percentage (%)

[[record]]
structure_as_smiles = "CCCCC/C=C\\C/C=C\\CCCCCCCC(=O)n1cc(C[C@H]2CCCN2C)c2ccccc21"
unit_abbrev = "%"
numeric_value = 97.35

[[record]]
structure_as_smiles = "[2H]C([2H])(c1cn(C(=O)CCCCCCC/C=C\\C/C=C\\CCCCC)c2ccccc12)[C@H]1CCCN1C([2H])([2H])[2H]"
unit_abbrev = "%"
numeric_value = 94.64

[[record]]
structure_as_smiles = "CCCCC/C=C\\C/C=C\\CCCCCCCC(=O)n1cc(CCN(C)C)c2ccccc21"
unit_abbrev = "%"
numeric_value = 107.31

[[record]]
structure_as_smiles = "CCCCC/C=C\\C/C=C\\CCCCCCCC(=O)n1cc(C[C@H]2CCCN2C)c2cc(OC)ccc21"
unit_abbrev = "%"
numeric_value = 93.17


###

experiment: Liver microsomes stability, dog; conditions: Dog, Without NADPH, 60 min
Parameter: Remaining Percentage (%)

[[record]]
compound = "CCCCC/C=C\\C/C=C\\CCCCCCCC(=O)n1cc(C[C@H]2CCCN2C)c2ccccc21 [Compound I-5]"
parameter = "Remaining Percentage (%)"
numeric_value = 90.58

[[record]]
compound = "CCCCC/C=C\\C/C=C\\CCCCCCCC(=O)n1cc(CCN(C)C)c2ccccc21 [Compound I-8]"
parameter = "Remaining Percentage (%)"
numeric_value = 92.44

[[record]]
compound = "CCCCC/C=C\\C/C=C\\CCCCCCCC(=O)n1cc(C[C@H]2CCCN2C)c2cc(OC)ccc21 [Compound I-6]"
parameter = "Remaining Percentage (%)"
numeric_value = 91.76

[[record]]
compound = "[2H]C([2H])(c1cn(C(=O)CCCCCCC/C=C\\C/C=C\\CCCCC)c2ccccc12)[C@H]1CCCN1C([2H])([2H])[2H] [Compound I-2]"
parameter = "Remaining Percentage (%)"
numeric_value = 91.63


###

molecules and their reported microsomal CLint at 2 μM
assay: Liver microsomes stability, human; details: human, microsomes
Parameter: microsomal CLint at 2 μM (µL/min/mg)

[[record]]
molecule = "CCCCC/C=C\\C/C=C\\CCCCCCCC(=O)n1cc(C[C@H]2CCCN2C)c2ccccc21 [Compound I-5]"
parameter = "microsomal CLint at 2 μM"
unit_abbrev = "µL/min/mg"
numeric_value = 7.42

[[record]]
molecule = "CCCCC/C=C\\C/C=C\\CCCCCCCC(=O)n1cc(C[C@H]2CCCN2C)c2cc(OC)ccc21 [Compound I-6]"
parameter = "microsomal CLint at 2 μM"
unit_abbrev = "µL/min/mg"
numeric_value = 4.74

[[record]]
molecule = "CCCCC/C=C\\C/C=C\\CCCCCCCC(=O)n1cc(CCN(C)C)c2ccccc21 [Compound I-8]"
parameter = "microsomal CLint at 2 μM"
unit_abbrev = "µL/min/mg"
numeric_value = 1.93

[[record]]
molecule = "[2H]C([2H])(c1cn(C(=O)CCCCCCC/C=C\\C/C=C\\CCCCC)c2ccccc12)[C@H]1CCCN1C([2H])([2H])[2H] [Compound I-2]"
parameter = "microsomal CLint at 2 μM"
unit_abbrev = "µL/min/mg"
numeric_value = 6.4


###

compounds and their reported CLint scaled at 2 μM
assay: Liver microsomes stability, dog; settings: dog, microsomes
Parameter: CLint scaled at 2 μM

[[record]]
structure_as_smiles = "CCCCC/C=C\\C/C=C\\CCCCCCCC(=O)n1cc(C[C@H]2CCCN2C)c2ccccc21"
result = "70.8 mL/min/kg"

[[record]]
structure_as_smiles = "CCCCC/C=C\\C/C=C\\CCCCCCCC(=O)n1cc(CCN(C)C)c2ccccc21"
result = "47.3 mL/min/kg"

[[record]]
structure_as_smiles = "[2H]C([2H])(c1cn(C(=O)CCCCCCC/C=C\\C/C=C\\CCCCC)c2ccccc12)[C@H]1CCCN1C([2H])([2H])[2H]"
result = "78.1 mL/min/kg"

[[record]]
structure_as_smiles = "CCCCC/C=C\\C/C=C\\CCCCCCCC(=O)n1cc(C[C@H]2CCCN2C)c2cc(OC)ccc21"
result = "86.3 mL/min/kg"


###

test: Liver microsomes stability, mouse; conditions: Mouse, Without NADPH, 30 min
compounds and their reported Remaining Percentage (%)
Parameter: Remaining Percentage (%)

[[record]]
compound = "CCCCC/C=C\\C/C=C\\CCCCCCCC(=O)n1cc(C[C@H]2CCCN2C)c2ccccc21 [Compound I-5]"
result = "80.19%"

[[record]]
compound = "[2H]C([2H])(c1cn(C(=O)CCCCCCC/C=C\\C/C=C\\CCCCC)c2ccccc12)[C@H]1CCCN1C([2H])([2H])[2H] [Compound I-2]"
result = "95.81%"

[[record]]
compound = "CCCCC/C=C\\C/C=C\\CCCCCCCC(=O)n1cc(C[C@H]2CCCN2C)c2cc(OC)ccc21 [Compound I-6]"
result = "81.25%"

[[record]]
compound = "CCCCC/C=C\\C/C=C\\CCCCCCCC(=O)n1cc(CCN(C)C)c2ccccc21 [Compound I-8]"
result = "87.39%"

